This collection of values is drawn from ChEMBL document CHEMBL1123905.

test.system: Histamine H2 receptor (Cavia porcellus) (UniProt P47747)
Sequence (P47747 whole entry): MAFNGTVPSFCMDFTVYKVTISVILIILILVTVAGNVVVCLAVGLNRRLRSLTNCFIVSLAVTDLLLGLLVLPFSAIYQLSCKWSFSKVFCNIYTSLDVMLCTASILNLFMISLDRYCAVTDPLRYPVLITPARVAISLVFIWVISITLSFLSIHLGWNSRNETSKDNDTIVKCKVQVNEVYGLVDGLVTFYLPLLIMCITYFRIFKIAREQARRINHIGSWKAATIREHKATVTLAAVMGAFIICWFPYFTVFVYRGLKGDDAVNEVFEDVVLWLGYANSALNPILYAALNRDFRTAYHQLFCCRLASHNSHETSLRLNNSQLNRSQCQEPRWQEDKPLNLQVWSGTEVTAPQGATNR
method.description: Antagonism of histamine stimulated rate of beating of guinea pig right atrium mediated by Histamine H2 receptor
Format: functional, tissue-based
setup.conditions: Cardiac atrium
Please go through the items and note down their -Log KB.
Answers are plain numbers.

A selection of reference data follows.
CN/C(=N\CCSCc1nc[nH]c1C)NC#N | 6.1
Cc1[nH]cnc1CSCCNc1ncccc1S(=O)(=O)O | 3.77
Cc1[nH]cnc1CSCCNc1ncccc1C(=O)O | 5.09
CN/C(=N\CCSCc1[nH]cnc1C)P(=O)(O)OC | 4.25
Cc1[nH]cnc1CSCC/N=C(\N)c1ccc(O)cc1 | 4.2

For the next question, use this compound.
Dear colleague, I am looking for the recorded -Log KB of the following compound: `Cc1[nH]cnc1CSCC/N=C(\N)C(=O)O`
5.41

###

test.system: Histamine H2 receptor (Cavia porcellus) (UniProt P47747)
method.description: Antagonism of histamine stimulated rate of beating of guinea pig right atrium mediated by Histamine H2 receptor
Assay type: functional, tissue-based
setup.conditions: Cardiac atrium
reported.endpoint: -Log KB

Take a look at these entries with their results.
Cc1[nH]cnc1CSCC/N=C(\N)CC(=O)O | 3.3
Cc1[nH]cnc1CSCCNc1ncccc1O | 5.89
Cc1[nH]cnc1CSCCNc1cc(C(=O)O)ccn1 | 3.76

Could you report -Log KB for every entry in the following list?
1. Cc1[nH]cnc1CSCC/N=C(\N)c1ccc(C(=O)O)cc1
2. CN/C(=N\CCSCc1[nH]cnc1C)S(=O)O

3.7
5.73

-Log KB lookup needed for `CN/C(=N\CCSCc1[nH]cnc1C)S(=O)(=O)O` , thanks.
5.87
